This listing pairs compounds with measured IC50.
target: KRAS-WT (Homo sapiens, UniProt P01116); assay: SOS-catalyzed nucleotide exchange assay (Procedure A, TR-FRET), KRAS-WT; type: biochemical; conditions: nucleotide exchange, read-out: KRAS WT GNE IC50
Sequence (P01116 with tags, fused parts or gaps isoform P01116-2): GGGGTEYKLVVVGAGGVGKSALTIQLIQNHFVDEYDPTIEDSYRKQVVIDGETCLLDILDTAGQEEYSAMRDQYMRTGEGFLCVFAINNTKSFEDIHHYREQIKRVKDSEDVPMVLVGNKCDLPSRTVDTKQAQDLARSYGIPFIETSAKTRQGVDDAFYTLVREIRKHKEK
Write it as a number; the unit nM goes unstated.

## Input Query (compound): `C#Cc1csc2cc3[nH]ncc3c(-c3nccc4c3sc3nc(OC[C@@]56CCCN5C[C@H](F)C6)nc(N5CCOC[C@@](C)(O)C5)c34)c12` ; field requested: IC50
## Output 3.79

## Input Query (compound): Cn1c2nc(OC[C@@]34CCCN3C[C@H](F)C4)nc(N3CCOC[C@@](C)(O)C3)c2c2ccnc(-c3c(C(F)F)c(Cl)cc4[nH]ncc34)c21 (single isomer, unassigned) ; field requested: IC50
## Output 158

Others:
## Input Query (compound): `CN(C)C[C@@]1(COc2nc(N3CCOC[C@@](C)(O)C3)c3c(n2)oc2c(-c4c(C5CC5)c(Cl)cc5[nH]ncc45)nccc23)CC1(F)F` ; field requested: IC50
## Output 262

====

target: KRAS-G13D (Homo sapiens, UniProt P01116, G13D); experiment: SOS-catalyzed nucleotide exchange assay (Procedure A, TR-FRET), KRAS-G13D; type: biochemical; settings: nucleotide exchange, Procedure A; read-out: KRAS G13D GNE IC50
Sequence (P01116 with tags, fused parts or gaps isoform P01116-2 G13D): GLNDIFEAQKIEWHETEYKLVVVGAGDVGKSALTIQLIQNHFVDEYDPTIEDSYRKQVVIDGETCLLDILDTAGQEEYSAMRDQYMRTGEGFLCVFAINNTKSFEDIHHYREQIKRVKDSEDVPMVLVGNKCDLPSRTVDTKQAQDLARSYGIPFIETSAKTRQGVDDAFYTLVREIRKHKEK
This listing pairs molecules with measured pIC50.
Give only the number. pIC50 is defined as minus log10 of concentration in molar units.

Below, each entry is followed by its recorded pIC50 result.
## Input Hello, I am looking for reported pIC50 with KRAS-G13D (Homo sapiens, UniProt P01116, G13D) for `CCc1c(C)cc2[nH]ncc2c1-c1nccc2c1sc1nc(OC[C@@]34CCCN3C[C@H](F)C4)nc(N3CCOC[C@@](C)(O)C3)c12` . Could you help?
## Output 6.83

## Input Hello, I am looking for reported pIC50 with KRAS-G13D (Homo sapiens, UniProt P01116, G13D) for `C#Cc1c(F)ccc2cc(O)cc(-c3nccc4c3sc3nc(OC[C@@]56CCCN5C[C@H](F)C6)nc(N5CCOC[C@@](C)(O)C5)c34)c12` . Could you help?
## Output 8.59

Kindly consider the entry below.
## Input Hello, I am looking for reported pIC50 with KRAS-G13D (Homo sapiens, UniProt P01116, G13D) for `C[C@@]1(O)COCCN(c2nc(OC[C@@]34CCCN3C[C@H](F)C4)nc3sc4c(-c5c(C6CCC6)c(Cl)cc6[nH]ncc56)nccc4c23)C1` . Could you help?
## Output 7.90

====

target: KRAS-G12D (Homo sapiens, UniProt P01116, G12D); experiment: SOS-catalyzed nucleotide exchange assay (Procedure A, TR-FRET), KRAS-G12D; format: biochemical; conditions: nucleotide exchange, read-out: KRAS G12D GNE IC50
Sequence (P01116 with tags, fused parts or gaps isoform P01116-2 G12D): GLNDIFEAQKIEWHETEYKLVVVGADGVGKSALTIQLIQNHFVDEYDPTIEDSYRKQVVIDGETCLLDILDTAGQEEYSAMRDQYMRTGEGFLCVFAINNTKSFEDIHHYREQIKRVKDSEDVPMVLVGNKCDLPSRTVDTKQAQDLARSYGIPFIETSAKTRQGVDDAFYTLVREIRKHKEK
Reported property: pIC50
Give only the number. pIC50 is defined as minus log10 of concentration in molar units.

Below, each entry is followed by its recorded pIC50 result.
## Input Query (compound): Cc1cc2[nH]ncc2c(-c2nncc3c2sc2nc(OC[C@@]45CCCN4C[C@H](F)C5)nc(N4CCOC[C@@](C)(O)C4)c23)c1C(F)(F)F [Ex-277] ; field requested: pIC50
## Output 7.41

## Input Query (compound): C=C1CN2CCC[C@@]2(COc2nc(N3CCOC[C@@](C)(O)C3)c3c(n2)sc2c(-c4c(C5CC5)c(Cl)cc5[nH]ncc45)nccc23)C1 [Ex-224] ; field requested: pIC50
## Output 8.57

## Input Query (compound): C[C@@]1(O)COCCN(c2nc(OC[C@@]34CCCN3C[C@H](F)C4)nc3sc4c(-c5c6c(cc7[nH]ncc57)CC5CC65)nccc4c23)C1 (stereo partly drawn) [Ex-90] ; field requested: pIC50
## Output 7.31

## Input Query (compound): C[C@@]1(O)COCCN(c2nc(OC[C@@]34CCCN3C[C@H](F)C4)nc3sc4c(-c5c(C6=CCC6)c(Cl)cc6[nH]ncc56)nccc4c23)C1 [Ex-70] ; field requested: pIC50
## Output 8.19

## Input Query (compound): C[C@@]1(O)COCCN(c2nc(OC[C@]3(CN4C[C@@H]5C[C@H]4CO5)CC3(F)F)nc3sc4c(-c5c(C6(F)CC6)c(Cl)cc6[nH]ncc56)nccc4c23)C1 [Ex-236] ; field requested: pIC50
## Output 7.79

Kindly consider the entry below.
## Input Query (compound): C#Cc1cccc2cc3[nH]ncc3c(-c3nccc4c3sc3nc(OC[C@@]56CCCN5C[C@H](F)C6)nc(N5CCOC[C@@](C)(O)C5)c34)c12 [Ex-171] ; field requested: pIC50
## Output 8.78

====

target: KRAS-G12C (C51S/C80L/C118S) (Homo sapiens, UniProt P01116, C118S/C51S/C80L/G12C); experiment: SOS-catalyzed nucleotide exchange assay (Procedure A, TR-FRET), KRAS-G12C; assay type: biochemical; conditions: nucleotide exchange, Procedure A; read-out: KRAS G12C GNE IC50
Sequence (P01116 with tags, fused parts or gaps isoform P01116-2 G12C/C51S/C80L/C118S): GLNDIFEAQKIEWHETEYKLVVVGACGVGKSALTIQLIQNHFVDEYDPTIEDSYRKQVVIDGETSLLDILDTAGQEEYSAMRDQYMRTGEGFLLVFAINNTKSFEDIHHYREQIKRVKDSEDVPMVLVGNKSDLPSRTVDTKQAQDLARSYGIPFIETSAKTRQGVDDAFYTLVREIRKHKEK
This listing pairs molecules with measured pIC50.
Give only the number. pIC50 is defined as minus log10 of concentration in molar units.

## Input Hello, I am looking for reported pIC50 with KRAS-G12C (C51S/C80L/C118S) (Homo sapiens, UniProt P01116, C118S/C51S/C80L/G12C) for CC1CCc2cc3[nH]ncc3c(-c3nccc4c3sc3nc(OC[C@@]56CCCN5C[C@H](F)C6)nc(N5CCOC[C@@](C)(O)C5)c34)c21 (single isomer, unassigned) [Ex-103] . Could you help?
## Output 7.74

## Input Hello, I am looking for reported pIC50 with KRAS-G12C (C51S/C80L/C118S) (Homo sapiens, UniProt P01116, C118S/C51S/C80L/G12C) for [2H]C([2H])([2H])N(C[C@@]1(COc2nc(N3CCOC[C@@](C)(O)C3)c3c(n2)sc2c(-c4c(C5(F)CC5)c(Cl)cc5[nH]ncc45)nccc23)CC1(F)F)C([2H])([2H])[2H] [Ex-231] . Could you help?
## Output 7.69

## Input Hello, I am looking for reported pIC50 with KRAS-G12C (C51S/C80L/C118S) (Homo sapiens, UniProt P01116, C118S/C51S/C80L/G12C) for Cc1cc2[nH]ncc2c(-c2nccc3c4c(N5CCC[C@@](C)(O)C5)nc(OC[C@]5(CN(C)C)CC5(F)F)nc4n(C)c23)c1C(F)(F)F [Ex-6] . Could you help?
## Output 6.98

Others:
## Input Hello, I am looking for reported pIC50 with KRAS-G12C (C51S/C80L/C118S) (Homo sapiens, UniProt P01116, C118S/C51S/C80L/G12C) for C#Cc1c(F)ccc2cc(O)cc(-c3nccc4c3sc3nc(OC[C@@]56CCCN5C[C@H](F)C6)nc(N5CCOC[C@@](C)(O)C5)c34)c12 [Ex-135] . Could you help?
## Output 8.03

## Input Hello, I am looking for reported pIC50 with KRAS-G12C (C51S/C80L/C118S) (Homo sapiens, UniProt P01116, C118S/C51S/C80L/G12C) for C[C@@]1(O)COCCN(c2nc(OC[C@]3(CN4CC(CF)C4)CC3(F)F)nc3sc4c(-c5c(C6(F)CC6)c(Cl)cc6[nH]ncc56)nccc4c23)C1 [Ex-266] . Could you help?
## Output 7.16

## Input Hello, I am looking for reported pIC50 with KRAS-G12C (C51S/C80L/C118S) (Homo sapiens, UniProt P01116, C118S/C51S/C80L/G12C) for C[C@@]1(O)COCCN(c2nc(OC[C@@]34CCCN3C[C@H](F)C4)nc3sc4c(-c5c(C6CC6)c(Cl)cc6[nH]ncc56)nccc4c23)C1 [Ex-144] . Could you help?
## Output 7.34

====

This listing pairs molecules with measured IC50.
tested on: MKN-1 cells; assay: Cellular phospho-ERK assay, MKN-1 cells (amplified wild-type KRAS); assay type: cell-based; conditions: Homo sapiens, 2 hours compound incubation, read-out: MKN1 pERK IC50
Write it as a number; the unit nM goes unstated.

## Input Query (molecule): `CO[C@@H]1CN2CCC[C@@]2(COc2nc(N3CCOC[C@@](C)(O)C3)c3c(n2)sc2c(-c4c(C5CC5)c(Cl)cc5[nH]ncc45)nccc23)C1` ; field requested: IC50
## Output 180

## Input Query (molecule): `C[C@@]1(O)COCCN(c2nc(OC[C@@]34CCCN3C/C(=C/F)C4)nc3sc4c(-c5c(C6CC6)c(Cl)cc6[nH]ncc56)nccc4c23)C1` ; field requested: IC50
## Output 158

## Input Query (molecule): `CCc1c(F)ccc2cc3[nH]ncc3c(-c3nccc4c3sc3nc(OC[C@@]56CCCN5C[C@H](F)C6)nc(N5CCOC[C@@](C)(O)C5)c34)c12` ; field requested: IC50
## Output 16.1

## Input Query (molecule): `C#C[C@@H]1CCCc2cc3[nH]ncc3c(-c3nccc4c3sc3nc(OC[C@@]56CCCN5C[C@H](F)C6)nc(N5CCOC[C@@](C)(O)C5)c34)c21` ; field requested: IC50
## Output 324

## Input Query (molecule): `CC1(F)CCN(C[C@@]2(COc3nc(N4CCOC[C@@](C)(O)C4)c4c(n3)sc3c(-c5c(C6(F)CC6)c(Cl)cc6[nH]ncc56)nccc34)CC2(F)F)CC1` ; field requested: IC50
## Output 84.2

Others:
## Input Query (molecule): `C/C=C1\CCCc2cc3[nH]ncc3c(-c3nccc4c3sc3nc(OC[C@@]56CCCN5C[C@H](F)C6)nc(N5CCOC[C@@](C)(O)C5)c34)c21` ; field requested: IC50
## Output 73.6

## Input Query (molecule): `C#Cc1c(F)sc2cc3[nH]ncc3c(-c3nccc4c3sc3nc(OC[C@@]56CCCN5C[C@H](F)C6)nc(N5CCOC[C@@](C)(O)C5)c34)c12` ; field requested: IC50
## Output 14.6

## Input Query (molecule): `CC(C)(C)c1c(Cl)cc2[nH]ncc2c1-c1nccc2c1sc1nc(OC[C@@]34CCCN3C[C@H](F)C4)nc(N3CCOC[C@@](C)(O)C3)c12` ; field requested: IC50
## Output 113

## Input Query (molecule): `C=C1CN2CCC[C@@]2(COc2nc(N3CCOC[C@@](C)(O)C3)c3c(n2)sc2c(-c4c(C5CC5)c(Cl)cc5[nH]ncc45)nccc23)C1` ; field requested: IC50
## Output 23.5

## Input Query (molecule): `C[C@@]1(O)COCCN(c2nc(OC[C@]3(CN4CCC5(CC5)C4)CC3(F)F)nc3sc4c(-c5c(C6(F)CC6)c(Cl)cc6[nH]ncc56)nccc4c23)C1` ; field requested: IC50
## Output 52.4

## Input Query (molecule): `COC1(C)CN(C[C@@]2(COc3nc(N4CCOC[C@@](C)(O)C4)c4c(n3)sc3c(-c5c(C6(F)CC6)c(Cl)cc6[nH]ncc56)nccc34)CC2(F)F)C1` ; field requested: IC50
## Output 39.3

## Input Query (molecule): `Cc1cc2[nH]ncc2c(-c2nccc3c2sc2nc(OC[C@@]45CCCN4C[C@H](F)C5)nc(N4CCOC[C@@](C)(O)C4)c23)c1C1CC1` ; field requested: IC50
## Output 53.1

## Input Query (molecule): `C#Cc1c(F)ccc2cc(O)cc(-c3nccc4c3sc3nc(OC[C@@]56CCCN5C[C@H](F)C6)nc(N5CCOC[C@@](C)(O)C5)c34)c12` ; field requested: IC50
## Output 3.86

## Input Query (molecule): `CC[C@@H]1CCCc2cc3[nH]ncc3c(-c3nccc4c3sc3nc(OC[C@@]56CCCN5C[C@H](F)C6)nc(N5CCOC[C@@](C)(O)C5)c34)c21` ; field requested: IC50
## Output 44.8
